# MEASUREMENT_PROTOCOL: Activators via SNCA 5'UTR binding, MLPCN (AID 1814)
# CONDITION_INFO: alpha-synuclein 5'UTR reporter, activators screen; active compounds read low; tested at 7.5 µM
The whole screen tested about 300,000 compounds, of which about 22,000 (7.3%) were called active. Roughly 2% stayed inconclusive and do not appear here. The full list was thinned out, with actives kept by preference.
# reported activity score; entries follow
I only need the number, in %, no unit after it.

// CS(=O)(=O)N1CCc2cc(C(=O)Nc3ccccc3)ccc21 : activity score value = -104

Lookup result for O=C(Nn1c(SCc2ccc([N+](=O)[O-])cc2)nc2ccccc2c1=O)c1ccc(F)cc1 ; measured activity score: -81.2

Notebook: O=C(Nc1ccc([N+](=O)[O-])cc1)C1CC12CCC2 (centres undefined) , activity score read as -78.2

Item: COc1cc(SC)ccc1C(=O)NCCOc1ccccc1Cl | activity score: -151

In plain terms, O=C(O)C1CCN(C(=O)OCc2ccccc2)CC1 has a documented activity score of -142

Short answer for Cc1ccc2nc(N3CCN(C(=O)c4ccco4)CC3)sc2c1 : activity score was -216

The reported numbers originate from PubChem BioAssay AID1814.
